Biological target: T1, HCV Core1-169 (HCV-1, UniProt P26664 1-169)
T1 construct: also called recombinant HCV core antigen
T1 sequence: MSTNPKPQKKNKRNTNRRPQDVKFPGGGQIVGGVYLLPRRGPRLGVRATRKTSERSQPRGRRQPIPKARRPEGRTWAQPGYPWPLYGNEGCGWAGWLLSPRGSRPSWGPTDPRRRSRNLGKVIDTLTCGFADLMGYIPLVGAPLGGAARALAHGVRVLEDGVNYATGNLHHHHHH
Experiment: EIA, core1-169 captured by mAb 14-153-229; further: test concentration or dose not given here
I'd be grateful if you could share measured OD (A492) for these entries.
Numbers only, in OD.

HCV 208A-557 (antibody, V domains shown) VH: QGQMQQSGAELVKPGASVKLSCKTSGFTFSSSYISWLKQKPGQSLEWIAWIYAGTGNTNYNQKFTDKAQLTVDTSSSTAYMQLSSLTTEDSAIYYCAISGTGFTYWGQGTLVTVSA VL: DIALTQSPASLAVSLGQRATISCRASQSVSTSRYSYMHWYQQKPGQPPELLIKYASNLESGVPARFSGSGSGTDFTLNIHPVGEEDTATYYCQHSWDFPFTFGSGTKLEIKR    2.39

In the following, a different binder is considered.
**Query** Report OD (A492) for HCV 208A-1064 (antibody, V domains shown) VH: EVQLQQSGPELVKPGASVKISCKTSGYTFTEYAMHWMKQSHGKSLEWIGGINPTNGDTIYNQKFKDKAKLTVDRSSSTAYMELRSLTSDDSALFYCARRELDYFASWGQGTTLTVSS VL: DIVLTQSPASLIVSLGQTATISCRASQSVSTSRFSYLHWIQQKPGQPPKLLIKYASNLESGVPVRFSGSGSGTDFTLNIHPVEEEDTATYFCQHSWEFPFTFGSGTKLKIKR
**Result** 1.57
